Each record here notes measured inhibition.
Target: Kelch-like ECH-associated protein 1 (Homo sapiens) (UniProt Q14145)
Sequence (Q14145 whole entry, looked up): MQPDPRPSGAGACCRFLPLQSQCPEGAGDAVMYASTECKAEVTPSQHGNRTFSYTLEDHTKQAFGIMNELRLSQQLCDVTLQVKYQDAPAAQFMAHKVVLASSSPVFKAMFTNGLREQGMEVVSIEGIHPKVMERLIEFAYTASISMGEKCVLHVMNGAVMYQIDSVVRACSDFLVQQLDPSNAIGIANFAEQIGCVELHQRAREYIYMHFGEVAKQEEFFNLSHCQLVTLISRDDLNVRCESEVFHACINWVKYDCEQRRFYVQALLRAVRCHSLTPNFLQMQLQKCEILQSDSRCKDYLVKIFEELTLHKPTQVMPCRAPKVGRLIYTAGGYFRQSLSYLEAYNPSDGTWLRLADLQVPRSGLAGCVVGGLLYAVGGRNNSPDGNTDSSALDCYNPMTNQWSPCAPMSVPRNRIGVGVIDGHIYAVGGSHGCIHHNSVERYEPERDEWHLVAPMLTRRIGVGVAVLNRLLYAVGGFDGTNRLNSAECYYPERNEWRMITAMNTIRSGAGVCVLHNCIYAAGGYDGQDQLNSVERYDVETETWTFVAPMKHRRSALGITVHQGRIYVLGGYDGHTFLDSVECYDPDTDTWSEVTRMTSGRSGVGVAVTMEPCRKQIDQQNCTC
Assay: competitive SPR blockade of Keap1/Nrf2 binding – biophysical, dry powder, orthogonal assay for Keap1-Nrf2 interaction inhibitor project, confirmation (AID 651876)
Details: Keap1 Kelch binding to Nrf2 peptide, at 50 µM, active compounds read high
The source made the active and inactive calls.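 How the source made its calls: active means inhibition above 20% at 50 µM; inactive means the rest.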

// solved cases for inhibition follow
O=C(O)C1CCCCC1C(=O)N1CCc2ccccc2C1CN1C(=O)Cc2ccccc2C1=O (centres undefined)	77%
O=C(O)CC(=O)N1CCc2ccccc2C1CN1C(=O)c2ccccc2C1=O (centres undefined)	2.1% (inactive)
Cc1ccc(S(=O)(=O)NNc2nc(N3CC(O)CC3C(=O)O)nc3ccccc23)cc1 (centres undefined)	-0.9% (inactive)
Cc1ccc(S(=O)(=O)NNc2nc(C(C(=O)OC(C)C)C(=O)C(F)(F)F)nc3ccccc23)cc1 (centres undefined)	28.3%
Cc1cc(C)c(S(=O)(=O)Nc2nc(C(C(=O)OC(C)C)C(=O)C(F)(F)F)nc3ccccc23)c(C)c1 (centres undefined)	1.9% (inactive)

Field: next molecule
## Input Quick one: inhibition of `COc1ccc(CCN=C2C=C(NS(=O)(=O)c3c(C)cc(C)cc3C)c3ccccc3C2=O)cc1` ?
## Output 8% (inactive)

Data credit: PubChem BioAssay AID651876
